Experiment: Aqueous stability of the compound in acetate buffer at pH 4 assessed as compound half life measured after 24 hrs by UPLC analysis
Format: physicochemical
Conditions: buffer, pH 4, 24 h, 24 h
Endpoint: t1/2 (days)
Unit days implied. Number only.

Below: 3 compounds and their reported t1/2.
| Compound | t1/2 / days |
| --- | --- |
| COC(=O)N[C@H](C(=O)N[C@@H](Cc1ccccc1)[C@H](CN(Cc1ccc(-c2ccccn2)cc1)NC(=O)[C@@H](NC(=O)OC)C(C)(C)C)OC(=O)OC(OC(=O)CCN)C(C)C)C(C)(C)C (stereo in doubt; 3aa) | 15.68 |
| COC(=O)N[C@H](C(=O)N[C@@H](Cc1ccccc1)[C@H](CN(Cc1ccc(-c2ccccn2)cc1)NC(=O)[C@@H](NC(=O)OC)C(C)(C)C)OC(=O)OC(OC(=O)[C@@H](NC(=O)[C@H](N)C(C)C)C(C)C)C(C)C)C(C)(C)C (stereo in doubt; 6h) | 13.93 |
| COC(=O)N[C@H](C(=O)N[C@@H](Cc1ccccc1)[C@H](CN(Cc1ccc(-c2ccccn2)cc1)NC(=O)[C@@H](NC(=O)OC)C(C)(C)C)OC(=O)OC(OC(=O)[C@H](C(C)C)N(C)C)C(C)C)C(C)(C)C (stereo in doubt; 5h) | 15.68 |

[in] Return t1/2 (reported value) for this compound: COC(=O)N[C@H](C(=O)N[C@@H](Cc1ccccc1)[C@H](CN(Cc1ccc(-c2ccccn2)cc1)NC(=O)[C@@H](NC(=O)OC)C(C)(C)C)OC(=O)OC(OC(=O)[C@H](N)C(C)C)C(C)C)C(C)(C)C (stereo in doubt; 5j)
[out] 13.93

[in] Return t1/2 (reported value) for this compound: COC(=O)N[C@H](C(=O)N[C@@H](Cc1ccccc1)[C@H](CN(Cc1ccc(-c2ccccn2)cc1)NC(=O)[C@@H](NC(=O)OC)C(C)(C)C)OC(=O)OC(OC(=O)C[C@H](N)Cc1cc(F)c(F)cc1F)C(C)C)C(C)(C)C (stereo in doubt; 3ac)
[out] 13.93
